- Tested on: Huh7 cells
- Condition Summary: read-out: Huh-7 (CC50), MTS, numeric bounds
Observed Property: CC50

What value of CC50 has been recorded for this entry: O=C1NCC[C@H]1C[C@H](NC(=O)[C@@H]1[C@H]2CCC[C@H]2CN1C(=O)c1cc2c([nH]1)C1CCC2C1)C(=O)CO (stereo partly shown) [Compound 157] > 50 µM

* * *

Can you tell me CC50 for the items I'm about to list?
- Procedure Summary: in vitro
- Condition Summary: African green monkey, VeroE6 + CP (CC50), Vero E6-eGFP cells with CP-100356, absence of virus, MTS; numeric bounds

Quick one: CC50 of COc1cccc2[nH]c(C(=O)N3C[C@]4(C[C@H]3C(=O)N[C@@H](C[C@@H]3CCCNC3=O)C(=O)COCc3ccccc3)CC4(F)F)cc12 [Compound 47A] ? > 100 µM

Look up CC50: O=C(NC1CC1)C(=O)[C@H](C[C@@H]1CCNC1=O)NC(=O)[C@@H]1CC2(CCN1C(=O)c1cc3ccccc3[nH]1)CC2 > 50 µM

What value of measured CC50 is listed for O=C1NCC[C@H]1C[C@H](NC(=O)[C@@H]1[C@H]2CCC[C@H]2CN1C(=O)c1cc2c([nH]1)CCS2(=O)=O)C(=O)CO ? > 50 µM

I would be grateful if you could share the reported CC50 for O=C1NCC[C@H]1C[C@H](NC(=O)[C@@H]1[C@H]2CCC[C@H]2CN1C(=O)c1cc2c([nH]1)CCCC2)C(=O)CO . > 50 µM

For the molecule CC[C@@H]1C[C@@H](C(=O)N[C@@H](C[C@@H]2CCNC2=O)C(=O)C(=O)NCc2ccccc2)N(C(=O)c2cc3ccccc3[nH]2)C1 , what CC50 is on record? > 100 µM

I would be grateful if you could share the reported CC50 for O=C(NC1CC1)C(=O)[C@H](C[C@@H]1CCNC1=O)NC(=O)[C@@H]1CC2(CCN1C(=O)c1cc3cc(F)ccc3[nH]1)CC2 . > 50 µM

Requested field: CC50. Item: COc1cccc2[nH]c(C(=O)N3C[C@@H]4CCC[C@@H]4[C@H]3C(=O)N[C@@H](C[C@@H]3CCNC3=O)C(=O)CO)c(F)c12 > 50 µM

Entry CSc1cccc2[nH]c(C(=O)N3C[C@@H]4CCC[C@@H]4[C@H]3C(=O)N[C@@H](C[C@@H]3CCNC3=O)C(=O)CO)cc12 has what CC50? > 50 µM

Consider the molecule shown here: COc1cccc2[nH]c(C(=O)N3C[C@@H]4CCC[C@@H]4[C@H]3C(=O)N[C@@H](C[C@@H]3CCNC3=O)C(=O)C(=O)NCCOc3ccccc3)cc12 What is its recorded CC50? > 50 µM

Consider the molecule shown here: COc1cccc2[nH]c(C(=O)N3C[C@@H]4CCC[C@@H]4[C@H]3C(=O)N[C@H](CN3CCCC3=O)C(=O)C(=O)NC3CC3)cc12 (single isomer, unassigned) [Compound 113B] What is its recorded CC50? > 50 µM

CC50 lookup needed for COc1cccc2[nH]c(C(=O)N3CCc4ccccc4[C@H]3C(=O)N[C@@H](C[C@@H]3CCNC3=O)C(=O)CO)cc12 , thanks. > 50 µM

Any idea what its CC50 is? The molecule is CC(C)OCCNC(=O)C(=O)[C@H](C[C@@H]1CCNC1=O)NC(=O)[C@@H]1[C@H]2CCC[C@H]2CN1C(=O)c1cc2c(Cl)cc(Cl)cc2[nH]1 > 50 µM

Which CC50 value is on record for COc1cccc2[nH]c(C(=O)N3C[C@@H]4CCC[C@@H]4[C@H]3C(=O)N[C@H](C=O)CC3CCNS3(=O)=O)cc12 (some centres unmarked) ? > 50 µM

Item CNc1cccc2[nH]c(C(=O)N3C[C@@H]4CCC[C@@H]4[C@H]3C(=O)N[C@@H](C[C@@H]3CCNC3=O)C(=O)CO)cc12 has what recorded CC50? > 50 µM

Query: CC50; subject: COc1cccc2[nH]c(C(=O)N3C[C@@H]4CCC[C@@H]4[C@H]3C(=O)NC(C[C@@H]3CCNC3=O)C(=O)C(=O)NCc3ccccc3)nc12 (some centres unmarked) > 100 µM

Can you look up the measured CC50 of O=C1NCC[C@H]1C[C@H](NC(=O)[C@@H]1[C@H]2CCC[C@H]2CN1C(=O)c1cc2c(OC(F)F)cc(Cl)cc2[nH]1)C(=O)CO for me? > 50 µM

Given the entry O=C(NCc1ccccc1)C(=O)[C@H](C[C@@H]1CCNC1=O)NC(=O)[C@@H]1CC2(CCN1C(=O)c1cc3ccccc3[nH]1)CC2 , report its measured CC50. > 100 µM

Query: CC50; subject: COc1cccc2[nH]c(C(=O)N3C[C@@H]4CCC[C@@H]4[C@H]3C(=O)N[C@@H](C[C@H]3CC(C)(C)NC3=O)C(=O)CO)cc12 > 50 µM

Consider the molecule O=C1NCC[C@H]1C[C@H](NC(=O)[C@@H]1[C@H]2CCC[C@H]2CN1C(=O)c1cc2c(OCc3ccccc3)cccc2[nH]1)C(=O)CO and give its measured CC50. > 50 µM

# input molecule: CC(C)(C)O[C@@H]1C[C@@H](C(=O)NC(C[C@@H]2CCNC2=O)C(=O)C(=O)NCc2ccccc2)N(C(=O)c2cc3ccccc3[nH]2)C1 (some centres unmarked) ; wanted: its CC50 > 100 µM

Entry COc1cccc2[nH]c(C(=O)N3C[C@H](C(F)(F)F)C[C@H]3C(=O)N[C@@H](C[C@@H]3CCCNC3=O)C(=O)CO)cc12 has what CC50? > 100 µM

Bench note: what CC50 did COc1cccc2[nH]c(C(=O)N3C[C@@H]4CCC[C@@H]4[C@H]3C(=O)N[C@@H](C[C@@H]3CCNC3=O)C(=O)C(=O)NC3CCOCC3)cc12 show? > 100 µM

Consider the molecule O=C(NCc1ccccc1)C(=O)C(C[C@@H]1CCNC1=O)NC(=O)[C@@H]1CCCCN1C(=O)c1cc2ccccc2[nH]1 (some centres unmarked) and give its measured CC50. > 100 µM
